# target_or_test_system: human ACE (Homo sapiens)
# Sequence (P12821 30-1306): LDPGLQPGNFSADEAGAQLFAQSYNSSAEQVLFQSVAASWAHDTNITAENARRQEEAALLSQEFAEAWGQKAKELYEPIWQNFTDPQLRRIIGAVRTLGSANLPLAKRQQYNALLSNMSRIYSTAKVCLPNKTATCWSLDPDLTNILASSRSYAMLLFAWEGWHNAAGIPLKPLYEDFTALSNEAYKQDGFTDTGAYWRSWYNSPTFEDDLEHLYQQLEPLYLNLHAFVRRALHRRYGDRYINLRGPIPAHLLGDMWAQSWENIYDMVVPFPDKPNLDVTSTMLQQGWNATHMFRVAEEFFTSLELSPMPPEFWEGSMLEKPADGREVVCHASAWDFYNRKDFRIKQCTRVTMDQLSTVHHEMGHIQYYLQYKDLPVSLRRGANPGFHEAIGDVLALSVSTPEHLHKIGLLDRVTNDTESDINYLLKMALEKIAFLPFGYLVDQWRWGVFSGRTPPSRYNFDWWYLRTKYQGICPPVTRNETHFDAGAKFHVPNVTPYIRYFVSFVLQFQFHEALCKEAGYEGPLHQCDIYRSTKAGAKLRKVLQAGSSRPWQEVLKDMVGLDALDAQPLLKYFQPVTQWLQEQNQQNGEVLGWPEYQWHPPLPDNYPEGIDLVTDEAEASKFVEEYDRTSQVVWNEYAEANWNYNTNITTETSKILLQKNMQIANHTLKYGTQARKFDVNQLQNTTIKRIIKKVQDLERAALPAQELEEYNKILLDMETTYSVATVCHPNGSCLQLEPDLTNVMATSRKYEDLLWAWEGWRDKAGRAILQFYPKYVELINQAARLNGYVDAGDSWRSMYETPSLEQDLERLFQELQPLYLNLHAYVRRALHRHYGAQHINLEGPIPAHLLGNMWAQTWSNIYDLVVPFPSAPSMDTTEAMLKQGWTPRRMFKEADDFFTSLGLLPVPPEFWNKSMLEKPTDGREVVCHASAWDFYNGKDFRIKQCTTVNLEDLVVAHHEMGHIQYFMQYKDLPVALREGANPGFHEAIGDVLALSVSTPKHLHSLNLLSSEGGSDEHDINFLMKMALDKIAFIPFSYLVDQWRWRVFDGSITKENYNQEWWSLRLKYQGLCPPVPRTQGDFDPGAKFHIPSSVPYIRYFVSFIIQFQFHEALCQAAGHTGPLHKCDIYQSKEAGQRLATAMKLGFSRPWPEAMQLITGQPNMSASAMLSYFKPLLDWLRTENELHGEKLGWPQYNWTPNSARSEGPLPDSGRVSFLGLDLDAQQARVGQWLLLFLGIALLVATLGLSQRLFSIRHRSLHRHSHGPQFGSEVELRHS
# assay_text: Inhibition of recombinant human ACE, fluorescence assay
# Assay type: biochemical
# reported_conditions: ratio of Ki Apps ACE/ACE2
result_type: selectivity for ACE2 versus ACE

| molecule_smiles | target_or_test_system | selectivity for ACE2 versus ACE |
| --- | --- | --- |
| CC[C@@H](C)[C@H](S)C(=O)N[C@@H](Cc1ccc(OCc2ccc(F)c(F)c2)cc1)C(=O)O | human ACE (Homo sapiens) | > 750 fold |
| CC[C@@H](C)[C@H](S)C(=O)N[C@@H](Cc1ccc(Oc2ccccc2)cc1)C(=O)O | human ACE (Homo sapiens) | > 100 fold |
| CC[C@@H](C)[C@H](S)C(=O)N[C@@H](Cc1ccccc1Oc1ccccc1)C(=O)O | human ACE (Homo sapiens) | > 100 fold |
| CC[C@@H](C)[C@H](S)C(=O)N[C@@H](Cc1cccc2ccccc12)C(=O)O | human ACE (Homo sapiens) | > 100 fold |
| CC[C@@H](C)[C@H](S)C(=O)N[C@@H](Cc1ccc2ccccc2c1)C(=O)O | human ACE (Homo sapiens) | > 100 fold |

Then there is this compound:
Reported selectivity for ACE2 versus ACE of `CC[C@@H](C)[C@H](S)C(=O)N[C@@H](Cc1cccc(Oc2ccccc2)c1)C(=O)O` : > 100 fold

----------
Measured selectivity for ACE2 versus CpA, listed per entry for reference.
# target_or_test_system: UniProt P15085
# Sequence (P15085 111-419): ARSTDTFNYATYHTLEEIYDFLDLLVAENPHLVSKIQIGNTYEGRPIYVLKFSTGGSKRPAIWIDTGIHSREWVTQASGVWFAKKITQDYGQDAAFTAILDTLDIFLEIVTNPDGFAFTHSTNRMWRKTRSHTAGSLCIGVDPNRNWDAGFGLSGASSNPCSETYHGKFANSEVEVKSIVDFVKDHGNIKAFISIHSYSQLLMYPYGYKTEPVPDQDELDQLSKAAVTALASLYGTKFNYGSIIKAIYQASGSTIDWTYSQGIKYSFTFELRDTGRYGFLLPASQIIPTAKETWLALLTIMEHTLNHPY
# assay_text: Inhibition of recombinant human CpA, fluorescence assay
# Format: biochemical
# reported_conditions: ratio of Ki Apps CpA/ACE2

Please review the following examples before continuing.
| molecule_smiles | selectivity for ACE2 versus CpA |
| --- | --- |
| CC[C@@H](C)[C@H](S)C(=O)N[C@@H](Cc1cccc(Oc2ccccc2)c1)C(=O)O | > 100 fold |
| CC[C@@H](C)[C@H](S)C(=O)N[C@@H](Cc1ccc2ccccc2c1)C(=O)O | > 100 fold |
| CC[C@@H](C)[C@H](S)C(=O)N[C@@H](Cc1ccccc1Oc1ccccc1)C(=O)O | > 100 fold |
| CC[C@@H](C)[C@H](S)C(=O)N[C@@H](Cc1cccc2ccccc12)C(=O)O | > 100 fold |
| CC[C@@H](C)[C@H](S)C(=O)N[C@@H](Cc1ccc(Oc2ccccc2)cc1)C(=O)O | > 100 fold |

Now, please, on to the next compound.
# compound `CC[C@@H](C)[C@H](S)C(=O)N[C@@H](Cc1ccc(OCc2ccc(F)c(F)c2)cc1)C(=O)O` ; its selectivity for ACE2 versus CpA = > 750 fold

Origin of the recorded values: paper PMC7127737
